Hi there, I'd appreciate the recorded Total Cell Count for every entry that follows.
Test system: Fibroblast
protocol.text: Multiplex assay against human fibroblast
Assay type: toxicity, cell-based
measurement.context: 12 h, 1 µM, compound concentration 1 uM, replicate 2
Numbers only.

Recorded Total Cell Count, per entry:
CSc1nc(NC2CCCC2)c([N+](=O)[O-])c(NC2CCCC2)n1 ... 135
COc1c(Nc2ccc(S(C)(=O)=O)nc2C)ncnc1OC1CCN(C(=O)OC(C)C)CC1 ... 105
Cn1cc(C(=O)OCC2CCN(CCNS(C)(=O)=O)CC2)c2ccccc21 ... 164

I have 4 compounds here; please give me Total Cell Count for each one.
1. CC(C)(C)c1ccc(CSc2cnn(C(C)(C)C)c(=O)c2Cl)cc1
2. COc1ccc2[nH]c(I)c(CCNC(C)=O)c2c1
3. CC(C)C[C@H](CO)Nc1nc(S[C@@H](C)c2ccccc2)nc2nc(N)sc12
4. Cc1ccc(OCC(O)C(C)NC(C)C)c2c1CCC2.Cl (configuration not stated)

Found:
[142, 173, 92, 210]
